Recorded values, source patent US20230295310A1.

# testSystem: human CD3 (human, UniProt P07766 23-207; P04234 22-171; P09693 23-182)
# Sequence (P07766 23-207, chain 1 of 3): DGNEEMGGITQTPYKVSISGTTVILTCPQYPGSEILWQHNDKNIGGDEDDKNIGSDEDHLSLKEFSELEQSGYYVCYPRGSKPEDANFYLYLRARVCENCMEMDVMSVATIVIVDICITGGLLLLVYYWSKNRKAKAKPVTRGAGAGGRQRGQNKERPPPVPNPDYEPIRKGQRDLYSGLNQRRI
# Sequence (P04234 22-171, chain 2 of 3): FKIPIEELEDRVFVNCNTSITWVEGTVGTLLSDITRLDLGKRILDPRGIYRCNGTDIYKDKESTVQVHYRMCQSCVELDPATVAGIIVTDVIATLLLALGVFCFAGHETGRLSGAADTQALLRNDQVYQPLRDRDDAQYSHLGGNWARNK
# Sequence (P09693 23-182, chain 3 of 3): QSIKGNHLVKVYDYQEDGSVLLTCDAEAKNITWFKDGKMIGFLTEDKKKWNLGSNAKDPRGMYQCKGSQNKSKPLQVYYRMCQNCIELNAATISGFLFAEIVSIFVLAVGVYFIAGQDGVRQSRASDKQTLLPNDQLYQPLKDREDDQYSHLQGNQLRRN
# runDescription: cell-based or functional assay
propertyName: CD8 EC50 (nM); CD69/CD25 on human T cells, plate-coated antibody
Answers are plain numbers, in nM.

[
  {
    "binder": "mAb 98 (antibody, V domains shown) VH: QVHLVESGGDVVQPGRSLRLSCSASGFTFSGYGMHWVRQAPGKGLEWVALIYFDGRNKYYADSVKGRFTISRDNSKNTLYLQMNSLRAEDTAVYYCARGGGYNWFDPWGQGTLVTVSS VL: DIQMTQSPSSLSASVGDRVTITCRASQSINNYLNWYQQKPGKAPKLLIYLASSLQSGVPSRFSGSGSGTDFTLTISSLQPEDLATYYCQLSYSSPFTFGPGTKVDVK",
    "unitOfMeasurement": "nM",
    "recordedMeasurement": 12
  }
]

Each of the following entries comes with a recorded value; kindly state CD8 EC50 (nM); CD69/CD25 on human T cells, plate-coated antibody for each.
1. mAb 141 (antibody, V domains shown) VH: QVQLVQSGAEVKKPGASVKVSCKASGYTFTSYYIHWVRQAPGQGLDWMGIINPSGGITGYAQKLQGRVTMTRDTSTTTVYMELSSLRSDDTAVYYCARGVRGNYYYYYMDVWGKGTTVTVSS VL: EIVLTQSPDFQSVTPKEKVTITCRASQSIGSKLHWYQQKPDQSPKLLIKYASQSFSGVPSRFSGSGSGTDFNLTINSLEAEDAATFYCHQSSGLPYTFGQGTKLEIK
2. mAb 74 (antibody, V domains shown) VH: EVQLVESGGGLVQPGRSLRLSCAASGFTFADYVMHWVRQAPGKGLEWVSGINWNNARIGYVGSVKGRFTISRDNAKNSLYLQMTSLRVEDTALYHCVREGNFDFWSAYYRGFLDLWGRGTLVTVSS VL: DIQMTQSPSSLSASVGDRVTITCRASQGIRSDLGWYQQKPGKAPKRLIYGASSLQGGVPSRFSGSGSGTEFTLTISSLQPEDFATYYCLQHNSYPYTFGQGTKLEIK
3. mAb 52 (antibody, V domains shown) VH: QVQLVQSGAEVKKPGASVKVSCKASGYTFTSHDINWVRQATGQGLEWMGWLNPNSGKTGYAQKFQGRVTMARDTSMYTADMELSSLRFEDTAVYYCARVGHYDMWPGFFSFDYWGQGTLVTVSS VL: DIQMTQSPSSLSASVGDRIIITCRASQDIRNDLGWYQQKPGKAPKRLIYAASSLQSGVPSRFSGSRSGTEFTLTISSLHPEDFATYYCLQHRSYPYTFGQGTNLEIK
4. mAb 119 (antibody, V domains shown) VH: EVQLVESGGGLVQPGRSLRLSCAASGFTFDDYTMHWVRQAPGKGLEWVSGISWNSGSIGYADSVKGRFTISRDNAKNSLYLQMNSLRAEDTALYYCSKDSSGYGYYLNYSLDVWGKGTTVTVSS VL: EIVMTQSPATLSVSPGERATLSCRASQSVSNLAWYQQKPGQAPRLLIYGASTRATGIPARFSGSGSGTEFTLTISSLQSEDFAVYYCQQYNNWPHFGQGTRLQIK
5. mAb 53 (antibody, V domains shown) VH: QVQLVQSGAEVKKPGASVKVSCKASGYTFTSYDINWVRQATGQGLEWMGWMNPKSGKTGYAQKFQGRITMTRNTPISTVYMDLSSLRSEDTAVYYCAREGHYDFWTGYYSFDYWGQGTLVTVSS VL: DIQMTQSPSSLSASVGDRVTITCRASQGIRNDLGWYQQTPGKAPKRLIYAASSLQSGVPSRFSGSGSGTEFTLTISSLQPEDFATYYCLQHYSYPYTFGQGTKLEIK
6. mAb 113 (antibody, V domains shown) VH: EVQLVESGGGLVKTGGSLRLSCVASGFSFKKAWMNWVRQAPGKGLEWVGRIKRNTDGGTTDYAAPVKGRFTLSRDDSKNTLYLQMNSLKTEDTAVYYCTTLDSSSWYVGYYYMDVWGKGTTVTVSS VL: DIQMTQSPSSVSASVGDRVTITCRASQDINNWLAWYQQKPGKAPKILIYTASSLQSGVPSRFSGSGSGTDFTLTISSLQPEDFATYYCQQAHSLPITFGQGTRLEIK
7. mAb 169 (antibody, V domains shown) VH: EVQLVESGGGLVKTGGSLRLSCVASGFSFKKAWMNWVRQAPGKGLEWVGRIKRNTDGGTADYAAPVKGRFTLSRDDSKKTLFLQMNSLKTEDTAVYYCTTLDSSSYYVGYYYMDVWGKGTTVTVSS VL: DIQMTQSPSSVSASVGDRVIITCRASQDINNWLAWYQQKPGKAPKLLIYTASSLQSGVPSRFSGSGSGTDFILTIGSLQPEDFATYYCQQAHSLPITFGQGTRLEIK
8. mAb 102 (antibody, V domains shown) VH: QVQLVESGGGVVQPGRSLRLSCAASGFSFRSYGMHWVRQAPGKGLEWVSVISYDGGNKYYADSVKGRFTISRDNSKNTLFLQMKSLRAEDTALYYCAKGGGTYWRGLFEYWGQGTLVTVSS VL: DIQLTQSPSFLSASVGDRVTITCRASQGISSYLAWYQKKPGKAPKLLIYAASTLHSGVPSRFSGGGSGTAFTLTISSLQPEDFATYYCQQLNNYPFTFGPGTKVDIK

[A]
[22.8, 19.6, 9.48, 13.8, 18.3, 8.89, 6.67, 16.9]

What the record says about mAb 110 (antibody, V domains shown) VH: QVQLVESGGGVVQPGRSLRLSCAASGFTFRSYGMHWVRQAPGKGLEWVAIIWYNGNKKDYVDSVKGRFTISRDNSKNMLYLQMNSLRAEDTALYYCARGPGYNWFDPWGQGTLVTVSS VL: DIQMTQSPPSLSASVGDRVTITCRASQRISSYLNWYQQRPGKAPKLLIYAASSLQSGVPSRFSGSGSGTDFTLTISSLQPEDFATYYCQQTDSFPLTFGGGTKVEII : CD8 EC50 (nM); CD69/CD25 on human T cells, plate-coated antibody is 15.3
